# measurement target: T1, GLP-1R Y205A (Homo sapiens)
# T1 chain: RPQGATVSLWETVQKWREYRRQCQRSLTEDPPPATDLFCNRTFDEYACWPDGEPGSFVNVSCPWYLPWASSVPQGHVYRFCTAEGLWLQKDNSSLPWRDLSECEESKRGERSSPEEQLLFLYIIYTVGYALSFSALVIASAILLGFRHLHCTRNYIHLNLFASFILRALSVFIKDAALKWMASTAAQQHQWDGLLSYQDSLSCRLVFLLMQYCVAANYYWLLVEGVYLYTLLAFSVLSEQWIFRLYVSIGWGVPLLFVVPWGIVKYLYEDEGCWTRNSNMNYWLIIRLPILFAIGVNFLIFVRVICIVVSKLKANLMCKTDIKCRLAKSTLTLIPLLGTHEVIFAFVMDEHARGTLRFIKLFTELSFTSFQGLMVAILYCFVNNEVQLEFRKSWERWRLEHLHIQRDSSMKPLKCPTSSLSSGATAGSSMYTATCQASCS
pIC50: −log10 of the molar value. No end group written: not given here.
Reported values of pIC50 for individual entries
property: pIC50

binder="HAEGTFTSDVSSYLEGQAAKEFIAWLVKGR (not fully specified (C-terminus)) [glucagon-like peptide-1]" endpoint_value=8.51
binder="HSQGTFTSDYSKYLDSRRAQDFVQWLMNTKRNRNNIA [oxyntomodulin]" endpoint_value=7.44
